Data credit: ChEMBL document CHEMBL4390639

TARGET_SYSTEM: Protein disulfide-isomerase (Homo sapiens, UniProt P07237)
Sequence (P07237 whole entry): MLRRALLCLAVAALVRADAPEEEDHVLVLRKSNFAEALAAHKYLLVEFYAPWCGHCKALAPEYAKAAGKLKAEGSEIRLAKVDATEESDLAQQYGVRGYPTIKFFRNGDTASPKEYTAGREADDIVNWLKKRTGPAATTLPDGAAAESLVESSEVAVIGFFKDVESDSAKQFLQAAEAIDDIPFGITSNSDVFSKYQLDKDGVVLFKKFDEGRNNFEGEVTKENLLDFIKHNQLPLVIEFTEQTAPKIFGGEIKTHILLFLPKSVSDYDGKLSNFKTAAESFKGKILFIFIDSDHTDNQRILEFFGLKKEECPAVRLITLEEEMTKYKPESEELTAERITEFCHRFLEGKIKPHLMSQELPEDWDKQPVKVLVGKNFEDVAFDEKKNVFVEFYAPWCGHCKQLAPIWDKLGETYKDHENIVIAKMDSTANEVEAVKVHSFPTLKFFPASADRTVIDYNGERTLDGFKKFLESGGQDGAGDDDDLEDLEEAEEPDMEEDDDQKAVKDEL
EXPERIMENT_SUMMARY: Inhibition of recombinant human N-terminal His-tagged PDI expressed in Escherichia coli BL21 (DE3) pLysS assessed as reduction in enzyme-mediated bovine insulin aggregation
pIC50: −log10 of the molar value.

# LINE_NOTATION, pIC50
records = [
    ("N#Cc1cccc(/C=C/C(=O)c2ccc(Cl)c(F)c2)c1", "< 3.30"),
    ("O=C(O)c1cccc(/C=C/C(=O)c2ccc(N3CCOCC3)cc2)c1", "< 4.00"),
    ("COc1ccc(C(=O)/C=C/c2cccc(C#N)c2)cc1OC", "< 4.00"),
]

---

TARGET_SYSTEM: Protein disulfide-isomerase (Homo sapiens)
EXPERIMENT_SUMMARY: Inhibition of recombinant human N-terminal His-tagged PDI expressed in Escherichia coli BL21 (DE3) pLysS assessed as reduction in enzyme-mediated bovine insulin aggregation
pIC50: −log10 of the molar value.

# LINE_NOTATION, pIC50
records = [
    ("O=C(/C=C/c1cccc(O)c1)c1ccc(OC(=O)c2cccs2)cc1", 5.76),
    ("O=C(/C=C/c1cccc(C(F)(F)F)c1)c1ccc(O)cc1", 5.81),
    ("CCN(CC)S(=O)(=O)c1ccc(C(=O)/C=C/c2cccc(O)c2)cc1", 5.89),
]

---

Listing of entries alongside the reported pIC50.
TARGET_SYSTEM: Protein disulfide-isomerase (Homo sapiens, UniProt P07237)
EXPERIMENT_SUMMARY: Inhibition of recombinant human N-terminal His-tagged PDI expressed in Escherichia coli BL21 (DE3) pLysS assessed as reduction in enzyme-mediated bovine insulin aggregation
pIC50: −log10 of the molar value.

# LINE_NOTATION, pIC50
records = [
    ("N#Cc1cccc(/C=C/C(=O)c2ccc(N3CCCCC3)cc2)c1", "< 3.30"),
    ("CCCN(CCC)S(=O)(=O)c1ccc(C(=O)/C=C/c2cccc(C(=O)OC)c2)cc1", "< 4.00"),
    ("N#Cc1cccc(/C=C/C(=O)c2cnccn2)c1", "< 3.30"),
]

---

TARGET_SYSTEM: Protein disulfide-isomerase (Homo sapiens, UniProt P07237)
EXPERIMENT_SUMMARY: Inhibition of recombinant human N-terminal His-tagged PDI expressed in Escherichia coli BL21 (DE3) pLysS assessed as reduction in enzyme-mediated bovine insulin aggregation
Listing of entries alongside the reported IC50.

# LINE_NOTATION, SIGN_QUALIFIER, IC50 / nM
data = [
    ("O=C(/C=C/c1ccc(-c2ccncc2)cc1)c1cccc(O)c1", "=", 210),
    ("O=C(/C=C/c1ccc(B(O)O)cc1)c1ccccc1", "=", 1250),
    ("N#Cc1ccc(/C=C/C(=O)c2ccc(O)c(C(F)(F)F)c2)cc1", "=", 1110),
    ("COC(=O)c1cccc(/C=C/C(=O)c2ccc(NS(=O)(=O)c3ccc([N+](=O)[O-])cc3)cc2)c1", ">", 100000),
    ("COc1ccc(C(=O)/C=C/c2cccc(C(=O)O)c2)cc1O", ">", 100000),
]
